Hey, just so you know, these numbers are from ChEMBL document CHEMBL5584329.

assay: Cytotoxicity against mouse RAW264.7 cells assessed as inhibition of cell viability at 20 uM by MTT assay relative to control; assay type: toxicity, cell-based; details: read-out: INH
observation type: cytotoxicity at 20 µM (%)
Just the number in %, nothing appended.

Some compounds with recorded cytotoxicity at 20 µM:
C=C1CC[C@H]2C(=C)CC[C@H]3C(CN(CCNS(=O)(=O)c4ccc(C(F)(F)F)cc4)S(=O)(=O)c4ccc(C(F)(F)F)cc4)C(=O)O[C@@H]3[C@@H]12 (some centres undefined) ... -6.84
C=C1CC[C@H]2C(=C)CC[C@H]3C(CN(CCNS(=O)(=O)c4cc(Cl)c(F)cc4F)S(=O)(=O)c4cc(Cl)c(F)cc4F)C(=O)O[C@@H]3[C@@H]12 (some centres undefined) ... 10.4
C=C1CC[C@H]2C(=C)CC[C@H]3C(CN(CCNS(=O)(=O)c4ccc5ccccc5c4)S(=O)(=O)c4ccc5ccccc5c4)C(=O)O[C@@H]3[C@@H]12 (some centres undefined) ... 8.58
C=C1CC[C@H]2C(=C)CC[C@H]3C(CNCCNS(=O)(=O)C4CC4)C(=O)O[C@@H]3[C@@H]12 (some centres undefined) ... 12.2
C=C1CC[C@H]2C(=C)CC[C@H]3C(CN(CCNS(=O)(=O)c4ccc(C(C)(C)C)cc4)S(=O)(=O)c4ccc(C(C)(C)C)cc4)C(=O)O[C@@H]3[C@@H]12 (some centres undefined) ... 9.88
C=C1CC[C@H]2C(=C)CC[C@H]3C(CN(CCNS(=O)(=O)c4cccc(Cl)c4F)S(=O)(=O)c4cccc(Cl)c4F)C(=O)O[C@@H]3[C@@H]12 (some centres undefined) ... 1.67
C=C1CC[C@H]2C(=C)CC[C@H]3C(CN(CCNS(=O)(=O)c4ccc(OC(F)(F)F)cc4)S(=O)(=O)c4ccc(OC(F)(F)F)cc4)C(=O)O[C@@H]3[C@@H]12 (some centres undefined) ... 13.6
C=C1CC[C@H]2C(=C)CC[C@H]3C(CN(CCNS(=O)(=O)c4ccc(F)cc4)S(=O)(=O)c4ccc(F)cc4)C(=O)O[C@@H]3[C@@H]12 (some centres undefined) ... 9.81
C=C1CC[C@H]2C(=C)CC[C@H]3C(CNCCNCc4cc(Cl)cc(Cl)c4O)C(=O)O[C@@H]3[C@@H]12 (some centres undefined) ... 8.94
C=C1CC[C@H]2C(=C)CC[C@H]3C(CNCCNCc4cc(Cl)ccc4O)C(=O)O[C@@H]3[C@@H]12 (some centres undefined) ... 16.7

stdin: Fill in reported cytotoxicity at 20 µM for this entry: C=C1CC[C@H]2C(=C)CC[C@H]3C(CNCCNCc4cc([N+](=O)[O-])ccc4O)C(=O)O[C@@H]3[C@@H]12 (some centres undefined)
stdout: 24.7

stdin: Fill in reported cytotoxicity at 20 µM for this entry: C=C1CC[C@H]2C(=C)CC[C@H]3C(CN(CCNS(=O)(=O)c4ccc(C)cc4)S(=O)(=O)c4ccc(C)cc4)C(=O)O[C@@H]3[C@@H]12 (some centres undefined)
stdout: 14.8

stdin: Fill in reported cytotoxicity at 20 µM for this entry: C=C1CC[C@H]2C(=C)CC[C@H]3C(=C)C(=O)O[C@@H]3[C@@H]12 [DEHYDROCOSTUSLACTONE]
stdout: 17.3

stdin: Fill in reported cytotoxicity at 20 µM for this entry: C=C1CC[C@H]2C(=C)CC[C@H]3C(CNCCNCc4cc(Br)ccc4O)C(=O)O[C@@H]3[C@@H]12 (some centres undefined)
stdout: -2.07
